- study system: His-tagged human recombinant kinase full-length Akt2 activated by PDK1 (Homo sapiens (Human))
- Sequence (P31751 whole entry): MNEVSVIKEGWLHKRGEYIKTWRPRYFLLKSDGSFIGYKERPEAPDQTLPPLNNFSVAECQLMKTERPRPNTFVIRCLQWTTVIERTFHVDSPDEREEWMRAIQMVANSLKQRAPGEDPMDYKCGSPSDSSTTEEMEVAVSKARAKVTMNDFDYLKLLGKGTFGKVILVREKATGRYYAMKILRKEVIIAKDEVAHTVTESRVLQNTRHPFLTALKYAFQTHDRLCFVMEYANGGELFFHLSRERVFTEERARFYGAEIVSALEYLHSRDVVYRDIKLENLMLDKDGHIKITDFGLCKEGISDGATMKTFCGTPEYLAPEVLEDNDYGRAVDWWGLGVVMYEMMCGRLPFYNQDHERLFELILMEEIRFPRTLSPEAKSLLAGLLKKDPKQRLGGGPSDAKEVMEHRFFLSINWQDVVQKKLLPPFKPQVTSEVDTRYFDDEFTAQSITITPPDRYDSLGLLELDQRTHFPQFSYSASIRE
- test method notes: Akt2 kinase assay (Akt2 TR-FRET assay, Biological Assay 2.0)
- assay context: 10 μM ATP, 1 μM biotinylated peptide substrate, 60 min at 22° C.
recorded endpoint: IC50 (nM)
Quick note: give the figure in nM, leave out the unit.

IC50 lookup needed for c1ccc(-c2cn3ccnc3nc2-c2ccc(CN3CCC(c4nc5cccnc5[nH]4)CC3)cc2)cc1 [Example 7.0] , thanks.
607

====

- study system: His-tagged human recombinant kinase full-length Akt2 activated by PDK1 (Homo sapiens (Human))
- test method notes: Akt2 kinase assay (Akt2 TR-FRET assay, Biological Assay 2.0)
- assay context: 10 μM ATP, 1 μM biotinylated peptide substrate, 60 min at 22° C.
recorded endpoint: pIC50
Note: pIC50 values are expressed as the negative base-10 logarithm of concentration in M.

// solved cases for pIC50 follow
[[record]]
structure_string = "Cc1cccc(-c2nc(C3CN(Cc4ccc(-c5nc6nc(C7CC7)nn6cc5-c5ccccc5)cc4)C3)n[nH]2)n1"
quantitative_readout = 8.00

[[record]]
structure_string = "Cc1nc2nc(-c3ccc(CN4CCC(c5n[nH]c(-c6cnccn6)n5)CC4)cc3)c(-c3ccc(F)cc3F)cn2n1"
quantitative_readout = 5.96

[[record]]
structure_string = "c1ccc(-c2cn3ccnc3nc2-c2ccc(CN3CCC(c4nc5ccncc5[nH]4)CC3)cc2)cc1"
quantitative_readout = 5.91

[[record]]
structure_string = "Cc1nc2nc(-c3ccc(CN4CCC(c5nc6ccc(F)cc6[nH]5)CC4)cc3)c(-c3ccccc3)cn2n1"
quantitative_readout = 6.64


Look at this compound and give its reported pIC50. `Cc1cccc(-c2nc(C3CN(Cc4ccc(-c5nc6nc(C7CC7)nn6cc5-c5ccc(F)cc5)cc4)C3)n[nH]2)n1`
7.57

Name the recorded pIC50 for `OCc1cnn2cc(-c3c(F)cccc3F)c(-c3ccc(CN4CC(c5n[nH]c(-c6ccccn6)n5)C4)cc3)nc12` .
6.10

Endpoint output: pIC50 of `CSc1nc2nc(-c3ccc(CN4CCC(c5n[nH]c(-c6cnccn6)n5)CC4)cc3)c(-c3ccccc3)cn2n1` . Value?
7.10

Param item = `Cc1nc2nc(-c3ccc(CN4CCC(c5nc6ccncc6[nH]5)CC4)cc3)c(-c3ccccc3)cn2n1` ; retrieve measured pIC50.
5.23

// pIC50 lookup, key: `COC(=O)c1cn2cc(-c3ccccc3)c(-c3ccc(CN4CC(c5n[nH]c(-c6ccccn6)n5)C4)cc3)nc2n1`
7.77

====

- study system: His-tagged human recombinant kinase full-length Akt2 activated by PDK1 (Homo sapiens (Human))
- test method notes: Akt2 kinase assay (Akt2 TR-FRET assay, Biological Assay 2.0)
- assay context: 10 μM ATP, 1 μM biotinylated peptide substrate, 60 min at 22° C.
Labelling field: enter rule met if recorded IC50 is less than 0.07 µM. Enter rule not met if it equals or exceeds that cut-off.

These recorded examples may help you get a feel for the data.
[[record]]
molecule = "CNc1c(-c2ccccc2)c(-c2ccc(CN3CC(c4n[nH]c(-c5cccc(C)n5)n4)C3)cc2)nc2nc(C)cn12"
category_label = "rule met"

[[record]]
molecule = "Cc1nc2nc(-c3ccc(CN4CC(c5n[nH]c(-c6ccccn6)n5)C4)cc3)c(-c3ccccc3)cn2c1Br"
category_label = "rule met"

[[record]]
molecule = "COC(=O)c1cnn2cc(-c3c(F)cccc3F)c(-c3ccc(CN4CCC(c5n[nH]c(-c6ccccn6)n5)CC4)cc3)nc12"
category_label = "rule not met"

[[record]]
molecule = "Cc1nc2nc(-c3ccc(CN4CCC(c5n[nH]c(-c6ccccn6)n5)CC4)cc3)c(-c3cccc(F)c3)cn2n1"
category_label = "rule not met"

[[record]]
molecule = "Fc1ccc(-c2cn3ccnc3nc2-c2ccc(CN3CCC(c4n[nH]c(-c5cnccn5)n4)CC3)cc2)cc1"
category_label = "rule not met"


Please turn your attention to the following entry.
Answer whether the molecule c1ccc(-c2cn3ccnc3nc2-c2ccc(CN3CCC(c4cnc5ccccc5n4)CC3)cc2)cc1 [Example 10.0] has IC50 strictly less than 0.07 µM
rule met
